Data provenance: ChEMBL document CHEMBL1152009

tested on: Streptococcus pyogenes; test: In vitro antibacterial activity against Streptococcus pyogenes CN10; format: functional
Measured MIC, listed per entry for reference.

Worked cases, answers included:
CC(C)=CC(=O)OCC1=C(C(=O)O)N2C(=O)[C@@H](NC(=O)/C(=N\O)c3cnc(N)s3)[C@H]2SC1 :: < 0.03 µg/mL
CO/N=C(\C(=O)N[C@@H]1C(=O)N2C(C(=O)O)=C(COC(C)=O)CS[C@H]12)c1csc(N)n1 :: < 0.03 µg/mL

The molecule C/C=C(\C)C(=O)OCC1=C(C(=O)O)N2C(=O)[C@@H](NC(=O)/C(=N\O)c3cnc(N)s3)[C@H]2SC1 , tested on Streptococcus pyogenes, showed MIC of ≤ 0.03 µg/mL

Entry C=C(C)C(=O)OCC1=C(C(=O)O)N2C(=O)[C@@H](NC(=O)/C(=N\O)c3cnc(N)s3)[C@H]2SC1 , tested on Streptococcus pyogenes, has a reported MIC of < 0.03 µg/mL

###

system: Klebsiella pneumoniae; assay: In vitro antibacterial activity against Klebsiella pneumoniae T767; type: functional
parameter: MIC (µg/mL)
Numbers only here, please. The scale is µg/mL.

Example entries begin here.
C/C=C(\C)C(=O)OCC1=C(C(=O)O)N2C(=O)[C@@H](NC(=O)/C(=N\O)c3cnc(N)s3)[C@H]2SC1 :: 0.5
CC(=O)OCC1=C(C(=O)O)N2C(=O)[C@@H](NC(=O)/C(=N\O)c3cnc(N)s3)[C@H]2SC1 :: 0.06
C=C(C)C(=O)OCC1=C(C(=O)O)N2C(=O)[C@@H](NC(=O)/C(=N\O)c3cnc(N)s3)[C@H]2SC1 :: 0.12
CC(C)=CC(=O)OCC1=C(C(=O)O)N2C(=O)[C@@H](NC(=O)/C(=N\O)c3cnc(N)s3)[C@H]2SC1 :: 0.5

# input for lookup
MIC recorded for this compound, CO/N=C(\C(=O)N[C@@H]1C(=O)N2C(C(=O)O)=C(COC(C)=O)CS[C@H]12)c1csc(N)n1 , is 0.06

###

tested on: Staphylococcus aureus; test: In vitro antibacterial activity against Staphylococcus aureus Oxford; format: functional
As shown below, each of these molecules has a reported MIC value.

CO/N=C(\C(=O)N[C@@H]1C(=O)N2C(C(=O)O)=C(COC(C)=O)CS[C@H]12)c1csc(N)n1 [CEFOTAXIME] :: 2 µg/mL
C/C=C(\C)C(=O)OCC1=C(C(=O)O)N2C(=O)[C@@H](NC(=O)/C(=N\O)c3cnc(N)s3)[C@H]2SC1 :: 0.25 µg/mL

Looking up CC(C)=CC(=O)OCC1=C(C(=O)O)N2C(=O)[C@@H](NC(=O)/C(=N\O)c3cnc(N)s3)[C@H]2SC1 , I see its MIC listed as 0.25 µg/mL

Per the record, C=C(C)C(=O)OCC1=C(C(=O)O)N2C(=O)[C@@H](NC(=O)/C(=N\O)c3cnc(N)s3)[C@H]2SC1 has MIC of 0.06 µg/mL

Input CC(=O)OCC1=C(C(=O)O)N2C(=O)[C@@H](NC(=O)/C(=N\O)c3cnc(N)s3)[C@H]2SC1 . Output MIC: 0.25 µg/mL

###

assay: Half-life in a rat liver homogenate preparation; format: ADME
Each entry below lists one item and its recorded half-life value.

CO/N=C(\C(=O)N[C@@H]1C(=O)N2C(C(=O)O)=C(COC(C)=O)CS[C@H]12)c1csc(N)n1 :: ≤ 15 min

Attention now turns to another entry.
The value of half-life measured for the compound CC(=O)OCC1=C(C(=O)O)N2C(=O)[C@@H](NC(=O)/C(=N\O)c3cnc(N)s3)[C@H]2SC1 turned out to be ≤ 15 min

###

// values below are reported MIC
tested on: Escherichia coli; experiment: In vitro antibacterial activity against Escherichia coli 1077 (resistance due to beta-lactamase); assay type: functional
Number in µg/mL, nothing else.

CC(C)=CC(=O)OCC1=C(C(=O)O)N2C(=O)[C@@H](NC(=O)/C(=N\O)c3cnc(N)s3)[C@H]2SC1 :: 0.25
C=C(C)C(=O)OCC1=C(C(=O)O)N2C(=O)[C@@H](NC(=O)/C(=N\O)c3cnc(N)s3)[C@H]2SC1 :: 0.06
CC(=O)OCC1=C(C(=O)O)N2C(=O)[C@@H](NC(=O)/C(=N\O)c3cnc(N)s3)[C@H]2SC1 :: 0.06

Now for the molecule whose MIC we want.
C/C=C(\C)C(=O)OCC1=C(C(=O)O)N2C(=O)[C@@H](NC(=O)/C(=N\O)c3cnc(N)s3)[C@H]2SC1 yielded MIC of 0.25

###

MIC reference
test system: Streptococcus pneumoniae; test: In vitro antibacterial activity against Streptococcus pneumoniae 1716; assay type: functional

CC(C)=CC(=O)OCC1=C(C(=O)O)N2C(=O)[C@@H](NC(=O)/C(=N\O)c3cnc(N)s3)[C@H]2SC1 :: < 0.03 µg/mL
CO/N=C(\C(=O)N[C@@H]1C(=O)N2C(C(=O)O)=C(COC(C)=O)CS[C@H]12)c1csc(N)n1 [CEFOTAXIME] :: < 0.03 µg/mL
C=C(C)C(=O)OCC1=C(C(=O)O)N2C(=O)[C@@H](NC(=O)/C(=N\O)c3cnc(N)s3)[C@H]2SC1 :: < 0.03 µg/mL
C/C=C(\C)C(=O)OCC1=C(C(=O)O)N2C(=O)[C@@H](NC(=O)/C(=N\O)c3cnc(N)s3)[C@H]2SC1 :: ≤ 0.03 µg/mL

Next, consider the following compound.
Measured MIC of CC(=O)OCC1=C(C(=O)O)N2C(=O)[C@@H](NC(=O)/C(=N\O)c3cnc(N)s3)[C@H]2SC1 : 0.06 µg/mL
